- subject.of.test: wild type human HSD17B13 (Homo sapiens (Human), UniProt Q7Z5P4)
- Sequence (Q7Z5P4 20-300): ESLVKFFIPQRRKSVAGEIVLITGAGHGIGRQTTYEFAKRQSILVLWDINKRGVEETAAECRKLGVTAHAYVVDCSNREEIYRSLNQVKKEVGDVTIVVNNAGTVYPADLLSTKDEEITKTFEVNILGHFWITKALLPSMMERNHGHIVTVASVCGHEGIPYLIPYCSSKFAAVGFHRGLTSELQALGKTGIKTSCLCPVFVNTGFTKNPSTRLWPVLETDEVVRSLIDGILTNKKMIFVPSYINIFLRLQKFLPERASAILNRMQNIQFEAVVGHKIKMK
- method: HEK_Beta-Est LCMS_IC50_Tekcel, whole-cell HEK-HSD17B13 inhibition assay, estrone production by LCMS
- Assay type: cell-based
- details: geometric mean, HEK cells stably expressing wild type human HSD17B13, 25 μM FAC beta-estradiol, read-out: HEK_Beta-Est LCMS_IC50—Tekcel GMean IC50
pIC50: −log10 of the molar value. Counter-ions that a name gives are not always drawn.
reported.endpoint: pIC50

Worked examples follow.
compound	test.result
O=C(NC[C@H]1CC[C@H](n2cc3cc(C(F)(F)F)ncc3n2)CC1)c1cc(F)c(O)c(F)c1 [Example 147, ammonium salt]	6.37
O=C(NC[C@H]1CC[C@H](n2cc3ccc(-c4ccncc4)cc3n2)CC1)c1cc(F)c(O)c(F)c1	6.92

(I) O=C(NC[C@H]1CC[C@H](n2cc3ccc(-c4ncccn4)cc3n2)CC1)c1cc(F)c(O)c(F)c1
(II) COc1cnc(-c2noc([C@H]3CC[C@H](CNC(=O)c4cc(F)c(O)c(F)c4)CC3)n2)cn1
Asked: Which record would sort first by descending pIC50, I or II ? Answer by stating the label of the chosen item.
Given back: I
